Molecular target: USP20 DUSP2 domain (Homo sapiens)
Construct: USP20_DUSP2; Q9Y2K6; DUSP2; 776; 894; 6xHis-GST (N, cleaved yes); made in house; host or cells: Escherichia coli BL21-Gold (DE3)
Sequence (Q9Y2K6 with tags, fused parts or gaps): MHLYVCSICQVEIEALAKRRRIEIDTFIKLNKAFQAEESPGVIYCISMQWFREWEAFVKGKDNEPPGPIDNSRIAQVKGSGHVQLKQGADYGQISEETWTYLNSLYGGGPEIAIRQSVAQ
Assay: Peptide SPOT array, USP20 DUSP2;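 also: GST-tagged domain probed overnight at 4 °C on peptides made on cellulose membranes, bound protein detected via HRP-coupled anti-GST antibody, spot intensity from image analysis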
Type: binding
Conditions: peptide SPOT array, sheet S5A, average normalized to the peptide with highest intensity (ARNTL2 = 100)
Recorded Metric: Normalize to peptide with higher intensity % (%)

Observe how each entry below is paired with its result.
Substance | Test Target | Reported Result
KEQLSSFDISPREKLI [ARNTL2] | USP20 DUSP2 domain (Homo sapiens) | 100
NGLDIAPRYFGFIKAC [SLC17A1] | USP20 DUSP2 domain (Homo sapiens) | 4.363
KGHSRDFVLRRDLSAT [ZIC5] | USP20 DUSP2 domain (Homo sapiens) | 40.4726

a = LRHPSGWWLVENEDRQ [NOXO1]
b = ATLATAWSLVEAAGLD [BAHCC1_2]
c = Ac-SDDDLAWNIAPQGLQ-NH2 [GPR137B348-362]
d = EGTEVAFPLLVSHRSQ [EMSY]
[in] Order the 4 substances from highest to lowest Normalize to peptide with higher intensity %. Labels, requested order.
[out] a, c, d, b
(a: 24.8999%, c: 0.8997%, d: -0.2483%, b: -8.681%)
